Subject of test: recombinant cynomolgus monkey CD3ε/δ heterodimer (cynomolgus monkey) (UniProt Q95LI5)
Sequence (Q95LI5 22-117, stated change not applied, chain 1 of 2): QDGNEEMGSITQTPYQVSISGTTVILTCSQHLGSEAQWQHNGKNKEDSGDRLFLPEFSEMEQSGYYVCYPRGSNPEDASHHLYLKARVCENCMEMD
Sequence (Q95LI8 22-105, stated change not applied, chain 2 of 2, further chain): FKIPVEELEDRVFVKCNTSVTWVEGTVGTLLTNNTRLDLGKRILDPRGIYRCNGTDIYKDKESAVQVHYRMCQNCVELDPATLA
Assay notes: BLI (Octet), antigen on anti-Penta His sensor, antibody 50 nM
Measurement name: koff (s⁻¹)
All answers are understood in s⁻¹, so give the number only.

Binder | koff [s⁻¹]
B15 (antibody, human IgG1, lambda, L234A L235A, V domains shown) VH: EVQLVESGGGLVQPGGSLKLSCAASGFTFNTYAMNWVRQASGKGLEWVGRIRSKYNNYATYYADSVKDRFTISRDDSKNTLYLQMNSLKTEDTAVYYCVRHGNFGNSYVSWFAYWGQGTLVTVSS VL: QAVVTQEPSLTVSPGGTVTLTCRSSTGAVTTSNYANWVQQKPGQAPRGLIGGTNKRAPWTPARFSGSLLGGKAALTLSGAQPEDEAEYYCALWYSNLWVFGGGTKLTVLG | 0.000328

### Prompt Please give the documented koff of E16 (antibody, human IgG1, lambda, L234A L235A, V domains shown) VH: EVQLVESGGGLVQPGGSLKLSCAASGFTFNTYAMNWVRQASGKGLEWVARIRSKYNNYATYYADSVKDRFTISRDDSKNTAYLQMNSLKTEDTAVYYCVRHGNFGNSYVSWFAYWGQGTLVTVSS VL: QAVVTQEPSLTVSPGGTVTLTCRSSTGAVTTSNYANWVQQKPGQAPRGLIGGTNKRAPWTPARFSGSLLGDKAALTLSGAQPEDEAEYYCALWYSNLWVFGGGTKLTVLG
### Response 0.000482

### Prompt Tell us which koff value is on record for E15 (antibody, human IgG1, lambda, L234A L235A, V domains shown) VH: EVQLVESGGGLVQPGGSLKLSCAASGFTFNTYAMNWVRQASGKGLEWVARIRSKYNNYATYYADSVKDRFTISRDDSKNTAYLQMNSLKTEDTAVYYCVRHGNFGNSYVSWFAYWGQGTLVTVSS VL: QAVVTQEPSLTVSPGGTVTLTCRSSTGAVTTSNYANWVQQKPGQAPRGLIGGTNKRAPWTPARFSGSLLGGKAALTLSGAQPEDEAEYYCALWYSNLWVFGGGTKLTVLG
### Response 0.00054
